B1: PPEF2 (parent)
chain: AFKAAALIQRWYRRYVARLEMRRR

Variants of: B1
assay_text: protein stability index of a GFP-peptide fusion (GPS, HEK-293T) (PSI 1-6); higher = more stable;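 further: lentivirally expressed fusions sorted by FACS into six bins by GFP to DsRed ratio, PSI derived from sequencing read proportions per bin multiplied by bin number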
experimental_context: c terminus: a fixed tail appended
Measured protein stability index values are reported for all entries that follow.
Hey, just send me the number, nothing else.

variant_description | protein stability index
E20N | 4.16
A17H | 2.63
V16M | 4.45
R22Q | 2.74
R24N | 3.62

Q: Which protein stability index reading was recorded for the variant Q9K ?
A: 3.59

Q: Which protein stability index is reported for this variant? R14A
A: 2.17
